src = paper PMC7819943

# MEASUREMENT_TARGET: OsWRKY34 (Oryza sativa, UniProt Q0JBA9 1-250)
# Sequence (Q0JBA9 entry or part of it): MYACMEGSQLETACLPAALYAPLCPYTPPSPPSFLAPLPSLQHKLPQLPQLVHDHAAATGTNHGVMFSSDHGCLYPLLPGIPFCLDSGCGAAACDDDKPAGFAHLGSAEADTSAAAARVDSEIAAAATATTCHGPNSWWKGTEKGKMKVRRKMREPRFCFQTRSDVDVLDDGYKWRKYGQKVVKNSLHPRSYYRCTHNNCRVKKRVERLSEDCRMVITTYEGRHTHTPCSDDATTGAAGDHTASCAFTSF
# RUN_DESCRIPTION: protein-binding microarray (RPBM); PBS, 2% BSA, 51.3 ng/ul salmon testes DNA, 50 uM zinc acetate, 200 nM TF, 25 C, 1 h; high values mean tight binding
# SETUP_CONDITIONS: protein: recombinant; tags: N-terminal polyhistidine and DsRed monomer fusion (pET32a); label: CyDye5-dUTP incorporated in the synthesized complementary strand; 3' TTTTT single-stranded linker to array surface; dsDNA, one strand shown
The full ranking holds about 68,000 sequences; the median of “fluorescence intensity (a.u.)” is about 9,100, and the highest 2% start at about 16,000. Many of the other results were omitted from the sample, so the highest values are more common in it than they were.

- SEQUENCE: "CAATCTCTCTCTCTCTCTCTCTCGCTGCTGCTGCTCCTTCCGGAGTCACCTAGTGCAG"
  MEASUREMENT_TARGET: "OsWRKY34 (Oryza sativa, UniProt Q0JBA9 1-250)"
  binding signal: "9770 fluorescence intensity (a.u.)"
- SEQUENCE: "TTTGGTTGCTTGCCTTCTTTATCGGCAAAATTTGCTATAGCGGAGTCACCTAGTGCAG"
  MEASUREMENT_TARGET: "OsWRKY34 (Oryza sativa, UniProt Q0JBA9 1-250)"
  binding signal: "8970 fluorescence intensity (a.u.)"
- SEQUENCE: "GCCCGTCTTCGTCCAGTTCCTGATCAGGTATGGTCCTTCTCGGAGTCACCTAGTGCAG"
  MEASUREMENT_TARGET: "OsWRKY34 (Oryza sativa, UniProt Q0JBA9 1-250)"
  binding signal: "8060 fluorescence intensity (a.u.)"
- SEQUENCE: "GTAGCCGCTTCCTGCCTTCCTTCCCCTTGCTCTTGCATTTCGGAGTCACCTAGTGCAG"
  MEASUREMENT_TARGET: "OsWRKY34 (Oryza sativa, UniProt Q0JBA9 1-250)"
  binding signal: "8340 fluorescence intensity (a.u.)"
- SEQUENCE: "CCCGCTCGCTCTCGTGCTGTCCGCCGACCTCAGCTCGCTCCGGAGTCACCTAGTGCAG"
  MEASUREMENT_TARGET: "OsWRKY34 (Oryza sativa, UniProt Q0JBA9 1-250)"
  binding signal: "10000 fluorescence intensity (a.u.)"
- SEQUENCE: "CCTTGTACCTCTGTCCAGATTCATTGTACTAAGATATGTCCGGAGTCACCTAGTGCAG"
  MEASUREMENT_TARGET: "OsWRKY34 (Oryza sativa, UniProt Q0JBA9 1-250)"
  binding signal: "8540 fluorescence intensity (a.u.)"
- SEQUENCE: "TTTTGAAATCCGCGCCTACTTTTTTCTTGTCTCTTCTGTGCGGAGTCACCTAGTGCAG"
  MEASUREMENT_TARGET: "OsWRKY34 (Oryza sativa, UniProt Q0JBA9 1-250)"
  binding signal: "8400 fluorescence intensity (a.u.)"
- SEQUENCE: "CCGTTACATGACGTGGGCCCCACCCAGCCGCGCCAGCCCACGGAGTCACCTAGTGCAG"
  MEASUREMENT_TARGET: "OsWRKY34 (Oryza sativa, UniProt Q0JBA9 1-250)"
  binding signal: "8450 fluorescence intensity (a.u.)"
- SEQUENCE: "TCCTCTTCTTTTCTCTCCCTCCGCCACTCGACGCCCAACCCGGAGTCACCTAGTGCAG"
  MEASUREMENT_TARGET: "OsWRKY34 (Oryza sativa, UniProt Q0JBA9 1-250)"
  binding signal: "9310 fluorescence intensity (a.u.)"
- SEQUENCE: "TCTTCTTCTTGTTGTTCTTGTTCTTTCTTCTTCCCCTTTTCGGAGTCACCTAGTGCAG"
  MEASUREMENT_TARGET: "OsWRKY34 (Oryza sativa, UniProt Q0JBA9 1-250)"
  binding signal: "18800 fluorescence intensity (a.u.)"
- SEQUENCE: "TTTCATCGTTTAGTGTCTTACTCCCTTTCCGATGGTCAACCGGAGTCACCTAGTGCAG"
  MEASUREMENT_TARGET: "OsWRKY34 (Oryza sativa, UniProt Q0JBA9 1-250)"
  binding signal: "9340 fluorescence intensity (a.u.)"
- SEQUENCE: "GATATGCATTTTCCCTGCTTTCCCTGCTTTTCCCCTTTTTCGGAGTCACCTAGTGCAG"
  MEASUREMENT_TARGET: "OsWRKY34 (Oryza sativa, UniProt Q0JBA9 1-250)"
  binding signal: "16400 fluorescence intensity (a.u.)"
- SEQUENCE: "ACGACGAGGAGGCGGTGGTGGTCGTGCGCGGGGAGGAGTCCGGAGTCACCTAGTGCAG"
  MEASUREMENT_TARGET: "OsWRKY34 (Oryza sativa, UniProt Q0JBA9 1-250)"
  binding signal: "9310 fluorescence intensity (a.u.)"
- SEQUENCE: "ACCTCGTACCTCGCCGCTGTTCCGTTCCGTGCTCTGTGTCCGGAGTCACCTAGTGCAG"
  MEASUREMENT_TARGET: "OsWRKY34 (Oryza sativa, UniProt Q0JBA9 1-250)"
  binding signal: "18700 fluorescence intensity (a.u.)"
- SEQUENCE: "TCTCCTCTTCTTTTTCTTCCTTCCTTTTACTCGCTCGCTCCGGAGTCACCTAGTGCAG"
  MEASUREMENT_TARGET: "OsWRKY34 (Oryza sativa, UniProt Q0JBA9 1-250)"
  binding signal: "9930 fluorescence intensity (a.u.)"
- SEQUENCE: "AGTAGGTTGTTGGTTTTGTACCTTTGGGCTCTTTGCCTTTCGGAGTCACCTAGTGCAG"
  MEASUREMENT_TARGET: "OsWRKY34 (Oryza sativa, UniProt Q0JBA9 1-250)"
  binding signal: "10900 fluorescence intensity (a.u.)"
- SEQUENCE: "GCATTTCGTGTTCCCTTTTTGCCTTTTTTTCCCCTTTTCTCGGAGTCACCTAGTGCAG"
  MEASUREMENT_TARGET: "OsWRKY34 (Oryza sativa, UniProt Q0JBA9 1-250)"
  binding signal: "10300 fluorescence intensity (a.u.)"
- SEQUENCE: "CATCTTCGCAGCAACTCAGTCATCAGCCCATAGCCATTTACGGAGTCACCTAGTGCAG"
  MEASUREMENT_TARGET: "OsWRKY34 (Oryza sativa, UniProt Q0JBA9 1-250)"
  binding signal: "8950 fluorescence intensity (a.u.)"
- SEQUENCE: "ATCTTCCCTTACAGTGACATCCTTTGTTCTTGCCGTCTCTCGGAGTCACCTAGTGCAG"
  MEASUREMENT_TARGET: "OsWRKY34 (Oryza sativa, UniProt Q0JBA9 1-250)"
  binding signal: "17600 fluorescence intensity (a.u.)"
